The origin of these recorded values is ChEMBL document CHEMBL1201862.

- Tested on: SF-539
- test-protocol: NCI tumour cell line growth inhibition, 48 h
Activity calls are given as the source filed them. Cut-off read from the data, not from the text of the source: active = GI50 up to about 1.1 µM and inactive = higher.
Outcomes: active, inactive

molecule	class
CC(=O)c1ccc(NC(=O)C(=O)Nn2c(S)nc3ccccc3c2=O)cc1	inactive
O=S(=O)(N/N=C/c1ccc(Cl)cc1Cl)c1ccccc1	inactive
N/N=C(\CCN1CCCC1)CC(c1ccccc1)c1c(O)c2ccccc2oc1=O (stereo not drawn)	inactive
CC(C)[C@H]1NC(=O)[C@H]2N=C(O[C@@H]2C)[C@@H]2CCCN2C(=O)[C@H](Cc2ccccc2)NC(=O)[C@@H]2CSC(=N2)[C@@H](Cc2ccccc2)NC(=O)[C@@H]2CSC1=N2	inactive
Cc1nc2c(o1)C(=O)c1ccccc1/C2=N/C1CCCCC1N (stereo not drawn)	active
CC(=O)O[C@@H]1C2=C(C)C=C(O2)[C@H]2O[C@]2(C)C[C@H]2C=C(C(=O)O2)[C@H](OC(C)=O)CC1[C@@]1(C)CO1 (stereo partly drawn)	inactive
Clc1ccc(-c2ccc(-c3nnc(CCc4nnc(-c5ccc(-c6ccc(Cl)cc6)o5)o4)o3)o2)cc1	inactive
CC(=O)c1c(-c2ccc(Cl)cc2)c(C#N)c(=S)n(C2OC(CO)C(O)C(O)C2O)c1C (stereo not drawn)	inactive
CCNC(=O)O/N=C1\CCC2[C@@H]3CC=C4C[C@@H](OC5CCCCO5)CC[C@]4(C)C3CC[C@]12C (stereo partly drawn)	inactive
Cc1ccc(S(=O)(=O)OCCN(CCOS(=O)(=O)c2ccc(C)cc2)c2ccc(C=O)cc2)cc1	inactive
CC(=O)c1cccc(NC(=O)/C(=N\NC(C)(C)C)c2c(O)c3ccccc3oc2=O)c1	inactive
COC(OC)[C@@H]1OC[C@H](n2cnc3c(N)ncnc32)[C@H]1O	inactive
CC(=O)O[C@H]1CC[C@@]2(C)C(=CC[C@H]3C(CC#N)[C@@](C)(C#N)CCC32)C1 (stereo partly drawn)	inactive
CCOC1OC(=O)c2cc3ccc4c(c3c(-c3ccc5c(c3)OCO5)c21)OCO4 (stereo not drawn)	inactive
COC(=O)c1cc(C#N)[nH]c1-c1ccc(Br)s1	inactive
CCOC(=O)c1[nH]c2cc(OC)c(OC)cc2c1CN(C)C	inactive
COc1cc(C=C2C(C)=NN(c3cccc(Cl)c3)C23SCC(=O)N3c2nc3ccccc3s2)ccc1O (stereo not drawn)	inactive
Cc1cc(O)nc(NN2C(Cl)C(=O)C2c2cccc(Cl)c2)n1 (stereo not drawn)	inactive

---

- Tested on: LOX IMVI
- test-protocol: NCI tumour cell line growth inhibition, 48 h
Activity calls are given as the source filed them. Cut-off read from the data, not from the text of the source: active = GI50 up to about 1.1 µM and inactive = higher.
quantity-name: GI50

> print(dat)
                                   compound  quantity.name        readout.value
1  Nc1nc2c(c(=O)[n-]1)[n+](CCO)cn2C1OC(CO)C(O)C1O (stereo unspecified)           GI50  > 100 µM (inactive)
2            CC(=O)c1c(O)c2c([nH]c1=O)CCCC2           GI50   20.1 µM (inactive)
3  NC(CCCCNCc1ccccc1O)C(=O)O (stereo unspecified)           GI50  > 100 µM (inactive)
4  C=CCn1c(-c2ccc(/N=N/Nc3ccc(-c4n[nH]c(=S)n4CC=C)cc3)cc2)n[nH]c1=S           GI50    3.4 µM (inactive)
5             Cc1cc(-c2nc3cc(O)ccc3s2)ccc1N           GI50     45 µM (inactive)
6  CSC(C1c2ccccc2N(c2ccc(C)cc2)C2=NC(=O)N(C)C(=O)C21Cl)S(=O)(=O)c1ccc(C)cc1 (stereo unspecified)           GI50   20.5 µM (inactive)

---

- Test system: SK-MEL-5
- test-protocol: NCI tumour cell line growth inhibition, 48 h
The source made the active and inactive calls. Cut-off read from the data, not from the text of the source: active = GI50 up to about 1.1 µM and inactive = higher.
quantity-name: GI50

> print(dat)
                                test.smiles        readout.value
1  COc1cc2c(/C=C3/C(=O)Nc4ccccc43)c(Cl)n(Cc3ccc(Cl)cc3)c2cc1C    0.384 µM (active)
2  Clc1ccc(-c2ccc(-c3nnc(CCc4nnc(-c5ccc(-c6ccc(Cl)cc6)o5)o4)o3)o2)cc1  > 100 µM (inactive)
3  COC(OC)[C@@H]1OC[C@H](n2cnc3c(N)ncnc32)[C@H]1O  > 100 µM (inactive)
4     O=C1CCCCC/C1=C\c1ccc([N+](=O)[O-])cc1   20.1 µM (inactive)
5                   S=C1NCCN1C(=S)NC1CCCCC1   22.2 µM (inactive)
6                                    CCCCNN   95.7 µM (inactive)

---

# reported GI50; entries follow
- Test system: HOP-92
- test-protocol: NCI tumour cell line growth inhibition, 48 h
Calls of active or inactive are those of the source. Cut-off read from the data, not from the text of the source: active = GI50 up to about 1.1 µM and inactive = higher.
quantity-name: GI50

> print(dat)
                                   compound        readout.value
1  COc1cc2c(cc1OC)C1Cc3cc(OC)c(OC)cc3N1CC2 (stereo not given)     33 µM (inactive)
2  O=[N+]([O-])c1cccc(/C=N/C23CC4CC(CC(C4)C2)C3)c1  > 100 µM (inactive)
3  COc1ccc(NC(=O)CC2S/C(=N\c3ccccc3C)NC2=O)c([N+](=O)[O-])c1 (stereo not given)  > 100 µM (inactive)
4       COc1cc2cccc(/N=C\c3ccccc3Cl)c2cc1OC  > 100 µM (inactive)
5  COc1c(Sc2c(SCSc3cnc4ccccc4c3Sc3cnc4ccccc4c3OC)cnc3ccccc23)cnc2ccccc12   13.2 µM (inactive)

---

- Tested on: Hs-578T
- test-protocol: NCI tumour cell line growth inhibition, 48 h
Calls of active or inactive are those of the source. Rule as the data show it: active = GI50 up to about 1.1 µM and inactive = higher. Where a SMILES comes first, the peptide text is derived from it. The star is where a group is joined. Cbz = O=C(OCc1ccccc1)*
quantity-name: GI50

> print(dat)
                                    compound        readout.value
 1  CO[C@H]1SC[C@H](OC(C)=O)[C@H](OC(C)=O)[C@H]1OC(C)=O  > 100 µM (inactive)
 2      COc1cc2c(cc1O)NC(=O)[C@@H]1CCCN1C2=O     24 µM (inactive)
 3  COc1c(Sc2c(SCSc3cnc4ccccc4c3Sc3cnc4ccccc4c3OC)cnc3ccccc23)cnc2ccccc12   52.2 µM (inactive)
 4  COC(=O)C(CC(C)C)NC(=O)C(CCCNC(=N)N)NC(=O)OCc1ccccc1 (stereo not drawn) (Cbz-Arg-Leu-OMe; configuration not given here)  > 100 µM (inactive)
 5  O=[N+]([O-])/C(C(Cl)=C(Cl)Cl)=C(\Nc1ccccc1)n1nnc2ccccc21   20.6 µM (inactive)
 6                 CCON1CC(C(=O)OC)=C(O)C1=O  > 100 µM (inactive)
 7          OCc1cccc(Nc2nc(O)c3[nH]cnc3n2)c1  > 100 µM (inactive)
 8          O=C1/C(=C\Oc2ccc(F)cc2)N2CCC1CC2   28.7 µM (inactive)
 9  FC(F)(F)c1ccc(C2=N/S(c3ccccc3)=N\C(c3ccc(C(F)(F)F)cc3)=N/S(c3ccccc3)=N\2)cc1 (stereo not given)  > 100 µM (inactive)
10  CCOC(=O)c1c(CN2CCCC2)n(-c2ccccc2)c2cc(Br)c(OC)cc12   29.9 µM (inactive)

---

# reported GI50; entries follow
- Test system: NCI-H460
- test-protocol: NCI tumour cell line growth inhibition, 48 h
Active and inactive are the calls of the source. Cut-off read from the data, not from the text of the source: active = GI50 up to about 1.1 µM and inactive = higher.
quantity-name: GI50

> print(dat)
                                   compound        readout.value
1  CCCCCCC(=O)OC[n+]1cccc(-c2c(COC(=O)NC(C)C)c(COC(=O)NC(C)C)c3n2CCC3)c1   14.5 µM (inactive)
2  COC(=O)C1=C(O)c2cc(-c3ccccc3)c(-c3ccccc3)c(C#N)c2NC(=O)C1    3.7 µM (inactive)
3  Cc1c(C2Cc3ccccc3N2)c2ccccc2n1C (stereo not given)   79.1 µM (inactive)
4  O=C(/C=C/c1ccccc1)NC1C=Nc2ccc([N+](=O)[O-])cc2NC1=O (stereo not given)  > 100 µM (inactive)
5  CCCCN1C(=O)N(c2ccc(OCC)cc2)C2N(CCCC)C1C(C)(C)C2(C)C (stereo not given)   42.2 µM (inactive)

---

- Test system: NCI-H226
- test-protocol: NCI tumour cell line growth inhibition, 48 h
Activity calls are given as the source filed them. Rule as the data show it: active = GI50 up to about 1.1 µM and inactive = higher.
# reported GI50; entries follow
quantity-name: GI50

> print(dat)
                                   compound       tgt  quantity.name        readout.value
1  CC(=O)c1cccc(NC(=O)/C(=N\NC(C)(C)C)c2c(O)c3ccccc3oc2=O)c1  NCI-H226           GI50  > 100 µM (inactive)
2           N#Cc1c(N)nc(S)c(C#N)c1-c1ccccc1  NCI-H226           GI50  > 100 µM (inactive)
3                   S=C1NCCN1C(=S)NC1CCCCC1  NCI-H226           GI50   22.2 µM (inactive)
4  CCN(C(=S)N[C@H](C(=O)N[C@@H](C)C(=O)OC)C(C)C)c1ccccc1  NCI-H226           GI50  > 100 µM (inactive)
5  CC(=O)Oc1ccc2c3c1[C@H]1O[C@H]1c1cccc(c1-3)[C@@H]1O[C@H]21  NCI-H226           GI50   21.4 µM (inactive)
6  COc1cccc(CC(C)NCC(O)c2ccc(O)c(O)c2)c1 (stereo unspecified)  NCI-H226           GI50   24.8 µM (inactive)
